Reference for the values: ChEMBL document CHEMBL4513141

# Test system: Staphylococcus aureus
# Details: Concentration 20 uM; ASSAY_TEST Inhibition of Bacterial Growth; detection method Absorption (OD600); MEDIA CAMHB; plate type 384well; NBS; CORNING #3640; time 18 hr
# Description: Antibacterial activity against Staphylococcus aureus MRSA ATCC 43300 (CO-ADD:GP_020); MIC in CAMBH media, using NBS plates, by OD(600)
Potency and affinity values are given separately.
Each item that follows carries a reported Inhibition.

| Molecule | Inhibition |
| --- | --- |
| Cn1c(=O)c2nc[nH]c2n(C)c1=O.O | -24.23% |
| COc1cc(N)c(Cl)cc1C(=O)NC1CN2CCC1CC2.Cl.O (centres undefined) [ZACOPRIDE HYDROCHLORIDE] | -3.02% |
| Cl.N=C(N)NC(=O)c1nc(Cl)c(N)nc1N.O.O [AMILORIDE HYDROCHLORIDE] | 11.17% |
| CN1[C@@H]2CC[C@H]1C[C@@H](OC(=O)c1c[nH]c3ccccc13)C2.Cl | 18.1% |

====

# Tested on: Staphylococcus aureus
# Details: Concentration 20 uM; ASSAY_TEST Inhibition of Bacterial Growth; detection method Absorption (OD600); MEDIA CAMHB; plate type 384well; NBS; CORNING #3640; time 18 hr
Potency and affinity values are given separately.
Each item that follows carries a reported Inhibition.

| Molecule | Inhibition |
| --- | --- |
| Cl.O[C@@H]1CCCC[C@H]1N1CCC(c2ccccc2)CC1 | 14.8% |
| CN1C(=O)CN=C(c2ccccc2)c2cc(Cl)ccc21 [DIAZEPAM] | 9.71% |
| Cl.Cl.OCCN1CCN(CCCN2c3ccccc3Sc3ccc(C(F)(F)F)cc32)CC1 [FLUPHENAZINE HYDROCHLORIDE] | 12.42% |
| COc1ccc(CCN)cc1OC | 8.89% |

====

# Test system: Escherichia coli
# Details: Concentration 20 uM; ASSAY_TEST Inhibition of Bacterial Growth; detection method Absorption (OD600); MEDIA CAMHB; plate type 384well; NBS; CORNING #3640; time 18 hr
# Description: Antibacterial activity against Escherichia coli ATCC 25922 (CO-ADD:GN_001); MIC in CAMBH media using NBS plates, by OD(600)
Measured potencies and affinities stand elsewhere.
Outcome Measure: Inhibition (%)

| Molecule | Outcome Measure | Result Unit | Result Value |
| --- | --- | --- | --- |
| Cl.Cl.OCCN1CCN(CCCN2c3ccccc3Sc3ccc(C(F)(F)F)cc32)CC1 [FLUPHENAZINE HYDROCHLORIDE] | Inhibition | % | -6.08 |
| CC(=O)OCC[N+](C)(C)C.[Cl-] [ACETYLCHOLINE CHLORIDE] | Inhibition | % | 4.11 |
| C#C[C@]1(O)CC[C@H]2[C@@H]3CCC4=CC(=O)CC[C@@H]4[C@H]3CC[C@@]21C | Inhibition | % | 4.04 |
| C[C@]12Cc3c[nH]nc3C[C@@H]1CC[C@@H]1[C@@H]2CC[C@@]2(C)[C@H]1CC[C@]2(C)O | Inhibition | % | 3.01 |
